Tested on: HT-29
method: Cytotoxicity against human HT-29 cells assessed as cell growth inhibition after 48 hrs by MTT assay
Format: functional, cell-based
study_conditions: HT-29, 48 h
assay_metric: IC50 (µM)
Give just the numeric value; µM need not be written.

Some solved entries appear below for comparison.
COc1cc2c3c(c4cc(OC)c(OC)cc4c2cc1OC)C(c1cccs1)CC(=O)N3 (centres undefined) = 18.9
COc1cc2c3c(c4cc(OC)c(OC)cc4c2cc1OC)C(c1ccc2c(c1)OCO2)CC(=O)N3 (centres undefined) = 7.84
COc1cc2c3c(c4cc(OC)c(OC)cc4c2cc1OC)C(c1ccc(Cl)cc1)CC(=O)N3 (centres undefined) = 13.8

# input for lookup
response.value for COc1ccc(C2CC(=O)Nc3c2c2cc(OC)c(OC)cc2c2cc(OC)c(OC)cc32)cc1 (centres undefined) (field: IC50) = 16.7

----------
Documented IC50 across a set of compounds
System: HCT-116
method: Cytotoxicity against human HCT116 cells assessed as cell growth inhibition after 48 hrs by MTT assay
Type: functional, cell-based
study_conditions: HCT-116, 48 h

Some solved entries appear below for comparison.
COc1cc2c3c(c4cc(OC)c(OC)cc4c2cc1OC)C(c1sccc1C)CC(=O)N3 (configuration not stated) = > 20 µM
COc1cc2c3c(c4cc(OC)c(OC)cc4c2cc1OC)C(c1ccc2c(c1)OCCO2)CC(=O)N3 (configuration not stated) = > 20 µM
COc1cc2c3c(c4cc(OC)c(OC)cc4c2cc1OC)C(c1cccc(Br)c1)CC(=O)N3 (configuration not stated) = > 20 µM

Lab entry: HCT-116 assay, compound COc1cc([C@@H]2c3cc4c(cc3[C@@H](O[C@@H]3O[C@@H]5CO[C@@H](C)O[C@H]5[C@H](O)[C@H]3O)[C@H]3COC(=O)[C@H]23)OCO4)cc(OC)c1O [ETOPOSIDE] , IC50 = 2.6 µM

Lab entry: HCT-116 assay, compound COc1cc2c3c(c4cc(OC)c(OC)cc4c2cc1OC)C(c1cccc(C(F)(F)F)c1)CC(=O)N3 (configuration not stated) , IC50 = 15.4 µM

Lab entry: HCT-116 assay, compound COc1ccc(C2CC(=O)Nc3c2c2cc(OC)c(OC)cc2c2cc(OC)c(OC)cc32)cc1 (configuration not stated) , IC50 = > 20 µM

Lab entry: HCT-116 assay, compound COc1cc2c3c(c4cc(OC)c(OC)cc4c2cc1OC)C(c1cccc2ccccc12)CC(=O)N3 (configuration not stated) , IC50 = 17.2 µM

Lab entry: HCT-116 assay, compound COc1cc2c3c(c4cc(OC)c(OC)cc4c2cc1OC)C(c1ccc(C(C)C)cc1)CC(=O)N3 (configuration not stated) , IC50 = > 20 µM

----------
Test system: HCT-116
method: Cytotoxicity against human HCT116 cells assessed as cell growth inhibition after 48 hrs by MTT assay
Type: functional, cell-based
study_conditions: HCT-116, 48 h
assay_metric: IC50

COc1cc2c3c(c4cc(OC)c(OC)cc4c2cc1OC)C(c1ccc2c(c1)OCO2)CC(=O)N3 (centres undefined) = 7.61 µM

response.value for COc1cc2c3c(c4cc(OC)c(OC)cc4c2cc1OC)C(c1ccc(C)cc1)CC(=O)N3 (centres undefined) (field: IC50) = > 20 µM

response.value for COc1cc2c3c(c4cc(OC)c(OC)cc4c2cc1OC)C(c1ccccc1)CC(=O)N3 (centres undefined) (field: IC50) = > 20 µM

response.value for COc1cccc(C2CC(=O)Nc3c2c2cc(OC)c(OC)cc2c2cc(OC)c(OC)cc32)c1 (centres undefined) (field: IC50) = > 20 µM
